- System: Pythium ultimum
- ASSAY OVERVIEW: Fungitoxicity assay against Pythium ultimum (in vitro, mycelial dry weight)
- Assay type: cell-based
- DETAILS: Globisporangium ultimum, 48 hours at 25° C., read-out: Pythium EC50
compounds and their reported IC50
Numbers only here, please. The scale is µg/mL.

Some compounds with known IC50 results, for comparison:
CCC(C)(NC(=O)c1cccc(C=NOC)c1)C(=O)CSC#N (stereo not shown)
7.38
CCC(C)(NC(=O)c1cc(Cl)c(C=NOC)c(Cl)c1)C(=O)CCl (stereo not shown)
0.23
CCC(C)(NC(=O)c1cc(C)cc(C=NO)c1)C(=O)CCl (stereo not shown)
5.95

Field request: IC50 | item: CCC(C)(NC(=O)c1cccc(C=NOC)c1)C(=O)CCl (stereo not shown) 0.31

Field request: IC50 | item: CCC(C)(NC(=O)c1cc(Cl)cc(C=NOC)c1)C(=O)CCl (stereo not shown) 0.05

Field request: IC50 | item: CCC(C)(NC(=O)c1cccc(C=NOCC(=O)OC)c1)C(=O)CCl (stereo not shown) 22.8

----------
- Test system: Pythium ultimum
- ASSAY OVERVIEW: Fungitoxicity assay against Pythium ultimum (in vitro, mycelial dry weight)
- Type: cell-based
- DETAILS: Globisporangium ultimum, 48 hours at 25° C., read-out: Pythium EC50
molecules and their reported IC50
Numbers only here, please. The scale is µg/mL.

CCC(C)(NC(=O)c1cc(C=NOC)cc(C=NOC)c1)C(=O)CCl (stereo not shown) [Example 15]
4.16
CCON=Cc1cccc(C(=O)NC(C)(CC)C(=O)CCl)c1 (stereo not shown) [Example 3]
2.07

Moving on to another molecule below.
Field request: IC50 | item: CCC(C)(NC(=O)c1cc(C)cc(C=NOC)c1)C(=O)CCl (stereo not shown) [Example 12] 0.16
